// data source = patent US20230212549A1

assay-notes: in vivo
condition-label: female, athymic nude, mouse, tumor, iv, uptake Tumor 0.25 h, ^68Ga-labeled; HEK-FAP tumor; PET/CT; 0.25 h post tracer injection
Numbered stars: 1 amine (or outer) side, 2 acyl side, 3 side chain; on linkers, the order of the positions; unused ones are H or OH. Bridge positions count the residues as written; N and C are the ends. Square brackets hold non-standard residues; d marks the D form. Peptide text beside a SMILES is read from it. * marks the point of attachment. ξ: configuration not given here. X7 = O=C(CCP(=O)(O)CN1CCN(CP(=O)(O)CO)CCN(CP(=O)(O)CO)CC1)NCCSCc1cc(C[*:1])cc(C[*:2])c1; X11 = O=C(O)CN1CCN(CC(=O)O)CCN(C(CCC(=O)NCCSCc2cc(C[*:1])cc(C[*:2])c2)C(=O)O)CC1; CO = O=C([*:1])[*:2]; ξC = NC(CS)C(=O)O; NHBu = CCCCN*
measured-endpoint: tissue uptake at 0.25 h (%ID/g)

INSERT INTO results (molecule, val) VALUES
  ('CCCCNC(=O)N[C@H]1CSCc2cc(CSCCNC(=O)CCC(C(=O)O)N3CCN(CC(=O)O)CCN(CC(=O)O)CC3)cc(c2)CSCC(C(=O)O)NC(=O)[C@H](Cc2ccccc2)NC(=O)[C@H](CCC(=O)O)NC(=O)[C@H]([C@@H](C)O)NC(=O)[C@@H]2CCCN2C(=O)[C@@H]2CCCN2C1=O (stereo partly drawn) [3BP-4724] ({NHBu-CO}-CPPTEF[ξC]-OH; linker 1-7 via X11)', 3.87),
  ('CCCCNC(=O)N[C@H]1CSCc2cc(CSCCNC(=O)CCP(=O)(O)CN3CCN(CP(=O)(O)CO)CCN(CP(=O)(O)CO)CC3)cc(c2)CSCC(C(=O)O)NC(=O)[C@H](Cc2ccccc2)NC(=O)[C@H](CCC(N)=O)NC(=O)[C@H]([C@@H](C)O)NC(=O)[C@@H]2CCCN2C(=O)[C@@H]2CCCN2C1=O (stereo partly drawn)', 7.82),
  ('CCCCNC(=O)N[C@H]1CSCc2cc(CSCCNC(=O)CCP(=O)(O)CN3CCN(CP(=O)(O)CO)CCN(CP(=O)(O)CO)CC3)cc(c2)CSCC(C(=O)O)NC(=O)[C@H](Cc2ccccc2)NC(=O)[C@H](CCC(=O)O)NC(=O)[C@H]([C@@H](C)O)NC(=O)[C@@H]2CCCN2C(=O)[C@@H]2CCCN2C1=O (stereo partly drawn) [3BP-4778] ({NHBu-CO}-CPPTEF[ξC]-OH; linker 1-7 via X7)', 3.66);

* * *

study-system: Human recombinant FAP (Homo sapiens, UniProt Q12884)
Sequence (Q12884 whole entry): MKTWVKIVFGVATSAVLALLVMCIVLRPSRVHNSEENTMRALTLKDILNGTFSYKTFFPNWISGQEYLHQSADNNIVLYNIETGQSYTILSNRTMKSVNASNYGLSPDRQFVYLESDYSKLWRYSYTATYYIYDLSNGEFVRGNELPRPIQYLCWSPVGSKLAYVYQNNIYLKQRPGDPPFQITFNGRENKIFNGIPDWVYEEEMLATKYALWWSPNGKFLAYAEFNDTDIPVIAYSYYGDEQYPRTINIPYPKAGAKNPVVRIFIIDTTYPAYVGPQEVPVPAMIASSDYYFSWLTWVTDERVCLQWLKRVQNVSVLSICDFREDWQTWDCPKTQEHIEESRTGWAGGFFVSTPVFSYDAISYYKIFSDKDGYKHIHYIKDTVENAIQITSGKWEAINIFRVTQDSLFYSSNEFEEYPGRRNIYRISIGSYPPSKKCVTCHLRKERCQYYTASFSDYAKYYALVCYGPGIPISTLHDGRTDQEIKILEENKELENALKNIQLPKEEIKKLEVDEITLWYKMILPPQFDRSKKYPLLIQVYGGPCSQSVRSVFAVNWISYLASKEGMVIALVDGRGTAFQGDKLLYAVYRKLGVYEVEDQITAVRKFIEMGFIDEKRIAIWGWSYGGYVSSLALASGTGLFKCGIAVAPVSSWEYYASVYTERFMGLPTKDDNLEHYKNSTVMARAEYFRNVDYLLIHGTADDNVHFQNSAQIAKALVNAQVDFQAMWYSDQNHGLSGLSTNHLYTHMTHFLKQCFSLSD
assay-notes: FRET-based FAP protease activity assay
Type: biochemical
Parameters: purchased R&D systems 3715-SE
condition-label: pIC50 Category (Activity), FRET-based FAP protease activity assay, recombinant human FAP, 37° C.
Numbered stars: 1 amine (or outer) side, 2 acyl side, 3 side chain; on linkers, the order of the positions; unused ones are H or OH. Bridge positions count the residues as written; N and C are the ends. Square brackets hold non-standard residues; d marks the D form. Peptide text beside a SMILES is read from it. * marks the point of attachment. X13 = O=C(O)CN1CCN(CC(=O)O)CCN(CC(=O)N2CCN(Cc3cc(C[*:1])cc(C[*:2])c3)CC2)CCN(CC(=O)O)CC1; mXylylene = c1cc(C[*:1])cc(C[*:2])c1; Pyrazinecarbonyl = O=C(c1cnccn1)*; Orn = NCCC[C@H](N)C(=O)O; Hexanoyl = CCCCCC(=O)*
measured-endpoint: IC50

INSERT INTO measurements (molecule, study_system, val) VALUES
  ('CCCCCC(=O)N[C@H]1CSCc2cc(cc(CN3CCN(C(=O)CN4CCN(CC(=O)O)CCN(CC(=O)O)CCN(CC(=O)O)CC4)CC3)c2)CSC[C@@H](C(=O)N[C@@H](CC(=O)O)C(N)=O)NC(=O)[C@@H]2CCCN2C(=O)[C@H](Cc2ccccc2)NC(=O)[C@@H]2CCCN2C(=O)[C@H](CCC(N)=O)NC(=O)[C@H]([C@@H](C)O)NC1=O [3BP-3856] (Hexanoyl-CTQPFPCD-NH2; linker 1-7 via X13)', 'Human recombinant FAP (Homo sapiens, UniProt Q12884)', '> 1 µM'),
  ('CCCCCC(=O)N[C@H]1CSCc2cc(CSCCNC(=O)CN3CCN(CC(=O)O)CCN(CC(=O)O)CCN(CC(=O)O)CC3)cc(c2)CSC[C@@H](C(=O)N[C@H](CC(=O)O)Cc2ccccc2)NC(=O)[C@H](Cc2ccccc2)NC(=O)[C@H](CCC(N)=O)NC(=O)[C@H]([C@@H](C)O)NC(=O)[C@@H]2CCCN2C(=O)[C@@H]2CCCN2C1=O', 'Human recombinant FAP (Homo sapiens, UniProt Q12884)', '< 0.01 µM'),
  ('CCCCCC(=O)N[C@H]1CSCc2cccc(c2)CSC[C@@H](C(N)=O)NC(=O)[C@H](Cc2ccccc2)NC(=O)[C@H](CCC(=O)O)NC(=O)[C@H](CCCNC(=O)c2cnccn2)NC(=O)[C@@H]2CCCN2C(=O)[C@@H]2CCCN2C1=O [3BP-3355] (Hexanoyl-CPP[Orn](Pyrazinecarbonyl)EFC-NH2; linker 1-7 via mXylylene)', 'Human recombinant FAP (Homo sapiens, UniProt Q12884)', '0.1 to 0.794 µM');
